Data origin: patent US12295997B2

System: CD8+ and CD4+ T cells (autologous CD3+ Pan-T cells isolated from human normal PBMCs)
TEST_PROTOCOL: Exogenous autologous normal donor restimulation assay (15-mer overlapping peptide pools on CD1c+ dendritic cells, TNFα/IFNγ flow cytometry)
Type: cell-based
CONDITION_NOTES: Table 28; additional neoantigens; 15-mer overlapping peptide pool; highest across normal donors
Quick reference: Max. Frequency of CD8+ TNFαINFγ DP of the listed items.
Simply state the number, no unit and no words.

Use the examples below as a reference point.
>  <MOLECULE>
LLNAEDYRCAIHSKEIYLLSPSPHQAMDKFSLCCINCNLCLHVFLLLLFFQNKDVWLISNIILLWIYGGI (peptide, listed as Homo sapiens, TM9SF3 alternative splicing) LLNAEDYRCAIHSKEIYLLSPSPHQAMDKFSLCCINCNLCLHVFLLLLFFQNKDVWLISNIILLWIYGGI

>  <Max. Frequency of CD8+ TNFαINFγ DP>
0.6

$$$$
>  <MOLECULE>
PSGRRTKRLVTLRSGCAIQCWHPRAGPVPSALPHTERPPRLVRGAADPRTVTLGRSPAVMPRAPA (peptide, listed as Homo sapiens, CCNF alternative splicing) PSGRRTKRLVTLRSGCAIQCWHPRAGPVPSALPHTERPPRLVRGAADPRTVTLGRSPAVMPRAPA

>  <Max. Frequency of CD8+ TNFαINFγ DP>
58.7

$$$$

Report Max. Frequency of CD8+ TNFαINFγ DP for FVSLTAIQMASSATPWGRWPVATPTAACPRRRPSSLPTGGDSASKKPISRRAPWQPWACPGRSVNSAAPRAWCPPATTPRTQSPSRDLRPRCLSSWSS (peptide, listed as Homo sapiens, FASN alternative splicing) FVSLTAIQMASSATPWGRWPVATPTAACPRRRPSSLPTGGDSASKKPISRRAPWQPWACPGRSVNSAAPRAWCPPATTPRTQSPSRDLRPRCLSSWSS
0.09

Let me know recorded Max. Frequency of CD8+ TNFαINFγ DP for LLEPFRRGEPGPRGLLSGSSRGGEGPGRSIEAAPATPLPCCRKNPCRPQPSRFLPPRVLLVIILPKLDCPKLGF (peptide, listed as Homo sapiens, AMACR alternative splicing) LLEPFRRGEPGPRGLLSGSSRGGEGPGRSIEAAPATPLPCCRKNPCRPQPSRFLPPRVLLVIILPKLDCPKLGF , thanks.
0.43

Quick one: give measured Max. Frequency of CD8+ TNFαINFγ DP for FGLTTLAGRSSHGTSGLRAATHTKSGDGGQGAARQCEKLLELARATRPWGRSTSASSRWTHRGYMCPPRCAVACW (peptide, listed as Homo sapiens, PEX10 alternative splicing) FGLTTLAGRSSHGTSGLRAATHTKSGDGGQGAARQCEKLLELARATRPWGRSTSASSRWTHRGYMCPPRCAVACW
0.35

Write down Max. Frequency of CD8+ TNFαINFγ DP measured for item P19 (peptide, listed as Homo sapiens) WTPIPVLTRWPLPHPPPWRRATSCRMARSSPSATSGSSVRRRCSSLPSWVWNLAASTRPRSTPS
0.15

Output measured Max. Frequency of CD8+ TNFαINFγ DP for this item: KGSVERRSVSLGHPAEGWAWAERSLQPGMTTANTGCLSFHHRGCLLPVLPKLHCGLGGLPLVRAKEIKRVQRAGESSLPVKGLLTVASAVIAVLWGRPSEVTGENEAQHD (peptide, listed as Homo sapiens, ILDR1 alternative splicing) KGSVERRSVSLGHPAEGWAWAERSLQPGMTTANTGCLSFHHRGCLLPVLPKLHCGLGGLPLVRAKEIKRVQRAGESSLPVKGLLTVASAVIAVLWGRPSEVTGENEAQHD
0.1
